This collection of values is drawn from ChEMBL document CHEMBL4043186.

test system: RAW264.7; experiment: Cytotoxicity against mouse RAW264.7 cells assessed as reduction in cell viability at 50 ug/ml after 24 hrs by MTT assay; type: cell-based; conditions: raw264.7, 24 h
observationType: Activity

* Fc1cccc(Cn2c3cccc4cccc(c43)n3cnnc23)c1 | Non-Toxic
* CCCn1c2cccc3cccc(c32)n2cnnc12 | Toxic
* Clc1cccc(Cl)c1Cn1c2cccc3cccc(c32)n2cnnc12 | Non-Toxic
* Cc1ccc(Cn2c3cccc4cccc(c43)n3cnnc23)cc1 | Toxic
* CCCCCCn1c2cccc3cccc(c32)n2cnnc12 | Toxic
* Clc1ccccc1Cn1c2cccc3cccc(c32)n2cnnc12 | Non-Toxic
* Fc1ccc(Cn2c3cccc4cccc(c43)n3cnnc23)cc1 | Non-Toxic
* FC(F)(F)c1ccc(Cn2c3cccc4cccc(c43)n3cnnc23)cc1 | Toxic
* CCCCCCCCn1c2cccc3cccc(c32)n2cnnc12 | Toxic
* Cc1cccc(Cn2c3cccc4cccc(c43)n3cnnc23)c1 | Non-Toxic
* c1ccc(Cn2c3cccc4cccc(c43)n3cnnc23)cc1 | Non-Toxic
* CCCCCCCCCn1c2cccc3cccc(c32)n2cnnc12 | Toxic

----------
test system: RAW264.7; experiment: Cytotoxicity against mouse RAW264.7 cells assessed as reduction in cell viability at 50 ug/ml after 24 hrs by MTT assay; type: cell-based; details: raw264.7, 24 h
observationType: Activity

* CCCCn1c2cccc3cccc(c32)n2cnnc12 | Toxic
* Clc1ccc(Cn2c3cccc4cccc(c43)n3cnnc23)cc1 | Toxic
* Clc1cccc(Cn2c3cccc4cccc(c43)n3cnnc23)c1 | Toxic
* Clc1ccc(Cn2c3cccc4cccc(c43)n3cnnc23)c(Cl)c1 | Non-Toxic
* CCCCCCCCCCn1c2cccc3cccc(c32)n2cnnc12 | Toxic
* Fc1ccccc1Cn1c2cccc3cccc(c32)n2cnnc12 | Non-Toxic

----------
test system: RAW264.7; test: Cytotoxicity against mouse RAW264.7 cells assessed as reduction in cell viability at 50 ug/ml preincubated for 24 hrs followed by LPS induction measured after 18 hrs by MTT assay; assay type: cell-based; settings: raw264.7, 18 h
observationType: Activity

- CCCCn1c2cccc3cccc(c32)n2cnnc12: Toxic
- CCCCCCCCn1c2cccc3cccc(c32)n2cnnc12: Toxic
- CCCCCn1c2cccc3cccc(c32)n2cnnc12: Non-Toxic
- Clc1ccccc1Cn1c2cccc3cccc(c32)n2cnnc12: Non-Toxic
- Clc1ccc(Cn2c3cccc4cccc(c43)n3cnnc23)c(Cl)c1: Non-Toxic
- Fc1cccc(Cn2c3cccc4cccc(c43)n3cnnc23)c1: Non-Toxic
- Cc1cccc(Cn2c3cccc4cccc(c43)n3cnnc23)c1: Non-Toxic
- Fc1ccc(Cn2c3cccc4cccc(c43)n3cnnc23)cc1: Non-Toxic
- c1ccc(Cn2c3cccc4cccc(c43)n3cnnc23)cc1: Non-Toxic
- Clc1cccc(Cl)c1Cn1c2cccc3cccc(c32)n2cnnc12: Non-Toxic
- Fc1ccccc1Cn1c2cccc3cccc(c32)n2cnnc12: Non-Toxic
- Clc1cccc(Cn2c3cccc4cccc(c43)n3cnnc23)c1: Toxic

----------
system: Mus musculus; test: Antiinflammatory activity in Kunming mouse assessed as inhibition of xylene-induced ear edema at 50 mg/kg, ip pretreated for 30 mins followed by xylene challenge measured after 30 mins relative to control; type: functional
observationType: inhibition in vivo at 50 mg/kg (%)

- COc1ccc2c(c1)c(CC(=O)O)c(C)n2C(=O)c1ccc(Cl)cc1: 49.4
- CC(C)Cc1ccc(C(C)C(=O)O)cc1 (centres undefined): 28.1
- Cc1cccc(Cn2c3cccc4cccc(c43)n3cnnc23)c1: 42.9
- Fc1ccccc1Cn1c2cccc3cccc(c32)n2cnnc12: 49.3
